measured.target: UniProtKB P10635
Sequence (P10635 whole entry): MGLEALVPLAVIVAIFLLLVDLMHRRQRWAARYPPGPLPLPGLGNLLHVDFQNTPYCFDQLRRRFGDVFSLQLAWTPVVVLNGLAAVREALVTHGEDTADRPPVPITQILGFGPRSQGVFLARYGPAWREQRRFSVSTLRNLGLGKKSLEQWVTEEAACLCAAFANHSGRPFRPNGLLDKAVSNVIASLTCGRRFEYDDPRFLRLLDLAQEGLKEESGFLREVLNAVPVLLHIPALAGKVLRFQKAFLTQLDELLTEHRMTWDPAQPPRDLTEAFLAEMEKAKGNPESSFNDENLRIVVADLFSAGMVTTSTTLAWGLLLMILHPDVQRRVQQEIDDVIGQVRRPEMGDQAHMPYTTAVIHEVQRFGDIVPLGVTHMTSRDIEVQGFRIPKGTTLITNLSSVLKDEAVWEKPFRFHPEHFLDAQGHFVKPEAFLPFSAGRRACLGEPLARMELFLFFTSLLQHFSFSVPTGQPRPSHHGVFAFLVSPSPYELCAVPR
test.description: Inhibition of recombinant human CYP2D6 assessed as remaining activity at 10 uM preincubated for 5 mins followed by substrate and NADP addition measured after 20 mins by fluorescence assay relative to control
Type: ADME
run.parameters: read-out: Activity
assay.readout: activity at 20 min, 10 µM

As a guide, the following entries are already answered.
N#Cc1c(NCc2ccccc2)sc2c1CCN(C(=O)c1ccc(F)cc1)C2
42%
N#Cc1c(NCc2ccc(F)cc2)sc2c1CCN(C(=O)c1ccccc1)C2
36.4%
COc1cccc(CNc2sc3c(c2C#N)CCN(C(=O)c2ccc(F)cc2)C3)c1
35%
Cc1cccc(C(=O)N2CCc3c(sc(NCc4ccccc4)c3C#N)C2)c1
35.7%

What does the data say about its activity at 20 min, 10 µM? Entry: `Cc1cc(C(=O)N2CCc3c(sc(NCc4ccccc4)c3C#N)C2)[nH]n1`
33.7%
